test system: SNB-19 CNS; assay: NCI tumour cell line growth inhibition, 48 h
TGI values, listed per item

Recorded results for 10 compounds are shown here.
CC12CCC(C)(c3cc(O)c(O)cc31)c1cc(O)c(O)cc12 ... 30.2 µM
C[C@]12CC[C@H](O)CC1CCC[C@@H]2O (stereo partly specified) ... > 100 µM
CN(CC(=O)O)Cc1c[nH]c2ccccc12 ... > 100 µM
C/C(=N\Nc1nc2ccccc2[nH]1)c1ccc2ccccc2n1 ... 15.9 µM
COc1ccc2c(c1)[n+](=O)c(C(=O)C/C(=N\NC(=O)C[N+](C)(C)C)C(=O)Nc1cc(Cl)ccc1Cl)c(C)n2O ... > 100 µM
COC(=O)/C=C/c1cc(OC)c2c(c1)C(C(=O)OC)C(c1ccc(O)c(OC)c1)O2 (stereo unspecified) ... > 100 µM
O=c1ccc2c(Cl)sc(Cl)c2[nH]1 ... > 100 µM
C=C(C)[C@H]1C=C[C@@H](OC(C)=O)[C@@]2(COC(C)=O)[C@H](OC(=O)CCC)[C@H]3[C@@H](OC(C)=O)[C@@H](C)C[C@]3(O)C(=O)[C@@](C)(OC(C)=O)[C@H]12 ... > 100 µM
COc1cc(Nc2nccc(-c3cnn4ncccc34)n2)cc(OC)c1 ... > 25 µM
O=C1COCCN1c1ccc(NCc2cn(Cc3ccc(F)cc3)c3ccccc23)cc1 ... > 100 µM

Here is the next item to consider.
Give the measured TGI of O=C1OC(=O)C2C1C1(c3ccccc3)OC2(c2ccccc2)c2c(Br)c(Br)c(Br)c(Br)c21 (stereo unspecified) .
> 100 µM

###

Entries and their measured TGI follow.
system: IGROV1 ovarian; assay: NCI tumour cell line growth inhibition, 48 h

Below: 3 molecules and their reported TGI.
Cn1c(=O)c2nc3sc4ccccc4c(=N)n3c2n(C)c1=O ... > 100 µM
Cc1cnc2n(c1=O)Cc1ccccc1CO2 ... 32.5 µM
O=C(/C=C/c1ccco1)c1cccc(Nc2nc(Nc3ccccc3)nc(Nc3ccccc3)n2)c1 ... > 100 µM

Let us move to another entry and its TGI.
Which value of TGI has been reported for Cc1cc2c(C=O)[nH]nc2c(C#N)c1C in the records?
> 100 µM

###

test system: SNB-19 CNS; test: NCI tumour cell line growth inhibition, 48 h
test.readout: TGI

Solved entries (count: 7):
COc1cc2oc(=O)cc(C)c2c(OC)c1OC ... > 100 µM
COc1cccc(/C=N/[N-]C(N)=O)c1[O-].[Cu+2].c1ccncc1 ... 25 µM
Cc1cn(C2CC(/[N+]([O-])=N\Nc3ccc([N+](=O)[O-])cc3)C(CO)O2)c(=O)[nH]c1=O (stereo not drawn) ... > 100 µM
CC(=O)O[C@H]1CC[C@@]2(C)[C@@H](CC[C@@H]3[C@@H]2CC(=O)[C@@]2(C)[C@H]3C[C@@H]3CC(C)=CC(=O)[C@@H]32)C1 ... > 100 µM
COC(=O)/C=C/c1cc(OC)c2c(c1)[C@@H](C(=O)OC)[C@H](c1ccc(OC)c(OC)c1)O2 ... > 100 µM
Cc1cccc(C)c1NC(=O)/C(CC(=O)CC(c1ccccc1)c1c(O)c2ccccc2oc1=O)=N/O (stereo not drawn) ... > 100 µM
CC1=NN(c2cccc(S(=O)(=O)O)c2)C2(C1)SCC(=O)N2c1nc2ccccc2s1 (stereo not drawn) ... > 100 µM

Proceeding to the next compound to report its TGI.
Consider the compound O=C1CSC2(CC(/C=C/c3ccccc3[N+](=O)[O-])=NN2c2cccc(S(=O)(=O)O)c2)N1c1nc2ccccc2s1 (stereo not drawn) and give its measured TGI.
35.1 µM

###

test system: NCI-H460 lung; assay: NCI tumour cell line growth inhibition, 48 h
Each item that follows carries a reported TGI.
Value expressed in µM; do not type the unit.

O=C1CN2CCN(CC2)CC(=O)Nc2ccc(cc2)S(=O)(=O)c2ccc(cc2)NC(=O)CN2CCN(CC2)CC(=O)Nc2ccc(cc2)S(=O)(=O)c2ccc(cc2)N1 ... 38.4

Pending molecule:
So what TGI did COc1ccc(C(CC(=O)c2ccc(O)cc2)C(C(=O)c2ccc(O)cc2)C(c2ccc(OC)cc2)C2C(=O)NC(=S)NC2=O)cc1 (centres undefined) get with NCI-H460 lung?
39.5

###

test system: UACC-257 melanoma; assay: NCI tumour cell line growth inhibition, 48 h
Recorded measurements of TGI, one per entry

// worked examples, TGI included
Cn1cc(C2=C(c3cn(CCCN/C(N)=N\[N+](=O)[O-])c4ccccc34)C(=O)NC2=O)c2ccccc21 ... 21.8 µM
CC(=O)NC1C(OCc2ccccc2)OC(COC(=O)CCCCCCCCCCNC(=O)CCNc2ccc([N+](=O)[O-])c3[nH]c4ccc(O)cc4c(=O)c23)C(O)C1OC(C)C(=O)N[C@H](C(=O)N[C@H](CCC(=O)O)C(N)=O)C(C)C (some centres undefined) ... > 100 µM

What reported TGI corresponds to CC(C)N=C(NC#N)NS(=O)(=O)c1cnccc1NC1CCCCCCC1 on UACC-257 melanoma?
> 100 µM

For UACC-257 melanoma, provide TGI of FC1(F)SC2CCCCCCCCCCC2C1(F)F (centres undefined) please.
69.8 µM

Find the measured TGI: item CC(C)[Si](CC1=CCCCC12C(=O)N(COCC[Si](C)(C)C)c1ccccc12)(C(C)C)C(C)C (centres undefined) , target or system UACC-257 melanoma.
> 100 µM

Item: COc1ccc(OC/C(N=Cc2cccnc2)=N/NC(=O)c2ccncc2)cc1 Test system: UACC-257 melanoma Read-out: TGI Value: ?
> 100 µM

Given the entry CN(C)CCNc1nc2c(c(=O)n(C)c(=O)n2C)n1C , what TGI was observed with UACC-257 melanoma?
> 100 µM

Query for UACC-257 melanoma: what TGI does the record show for Nc1c(C(=O)Nc2cccc3ccccc23)sc2nc3c(cc12)CCCCCC3 ?
> 50 µM

Item: O=C1CSC2(CC(/C=C/c3ccccc3[N+](=O)[O-])=NN2c2cccc(S(=O)(=O)O)c2)N1c1nc2ccccc2s1 (centres undefined) Test system: UACC-257 melanoma Read-out: TGI Value: ?
> 75 µM

###

tested on: KM12 colon; assay: NCI tumour cell line growth inhibition, 48 h; in the data active means GI50 below about 0.43 µM; inactive means the rest
Permitted responses: active, inactive

These recorded examples may help you get a feel for the data.
CO[C@]12C=C/C(=C(/C(=O)OCc3cccnc3)C(=O)CCCCCCCC[C@]3(OC)C=C/C(=C(/C(=O)OCc4cccnc4)C(=O)CCCCCCCC1)O3)O2 ... active
Cc1cnc2n(c1=O)Cc1ccccc1CO2 ... inactive
Nc1c(S(=O)(=O)O)cc2c(c1Cl)C(=O)c1ccccc1C2=O ... inactive

Turning to the following compound.
State the result this test recorded for Nc1nc(-c2ccccc2Cl)cc(-c2ccc(Cl)cc2Cl)n1 .
inactive

###

test system: DU-145 prostate; assay: NCI tumour cell line growth inhibition, 48 h
test.readout: TGI

Examples with answers:
O=[N+]([O-])c1cc(C2ON=C(c3ccccc3)N2C23CC4CC(CC(C4)C2)C3)ccc1Cl (centres undefined) ... > 100 µM
COc1ccc(/C=N/C2=C(C#N)C(c3ccccc3)c3ccc4ccccc4c3O2)cc1 (centres undefined) ... > 100 µM
O=C1COCCN1c1ccc(NCc2cn(Cc3ccc(F)cc3)c3ccccc23)cc1 ... > 69.1 µM
CC1=NN(c2cccc(S(=O)(=O)O)c2)C2(C1)SCC(=O)N2c1nc2ccccc2s1 (centres undefined) ... > 100 µM
CCOC(=O)C1=CN(Cc2ccccc2)C2ON=C(c3ccc(Cl)cc3)C2C1 (centres undefined) ... > 70 µM
O=C1N(c2ccccc2)N=C2c3ccncc3C3=NN(c4ccccc4)C(=O)C123 (centres undefined) ... > 100 µM
C/C(=N\Nc1nc2ccccc2[nH]1)c1ccc2ccccc2n1 ... 5.88 µM
COc1cc(Nc2nccc(-c3cnn4ncccc34)n2)cc(OC)c1 ... 2.82 µM

Requested read-out: TGI. Entry: Cc1nc2ccccc2n1Cc1ccc(NC(=S)NC2CCCCC2)cc1
> 100 µM

For Cc1cc(NS(=O)(=O)c2ccc(N=Nc3c(Nc4ccccc4)nn(-c4ccc(S(=O)(=O)Nc5ccncn5)cc4)c3C)cc2)no1 , what is its reported TGI?
> 100 µM

Requested field: TGI. Item: COC(=O)CC(c1ccccc1)C(C#N)(OP1(=O)OC(c2ccccc2)C(C)N1C)c1ccccc1 (centres undefined)
> 100 µM

I'd like to know its TGI. The compound in question is COC(=O)C1=C(C(=O)OC)C2CCC1CC2=O (centres undefined)
> 100 µM

Endpoint output: TGI of O=C(/C=C/c1ccco1)c1cccc(Nc2nc(Nc3ccccc3)nc(Nc3ccccc3)n2)c1 . Value?
> 100 µM

###

system: UACC-62 melanoma; assay: NCI tumour cell line growth inhibition, 48 h; in the data active = GI50 below about 0.43 µM; inactive = the rest
Pick one and only one: active, inactive

Would you please look over these solved cases?
C=C(C=O)[C@@H]1CC=C(C=O)CC1 ... inactive
COc1ccc2c(c1)cn1c3ccc(OC)cc3[nH]c(=O)c21 ... active
CCCCCCOc1ccc(/C=N/Nc2cc(C)nc3ccc(Br)cc23)cc1 ... inactive
C=CCOc1ccc2c(c1)CC[C@@H]1[C@@H]2CC[C@]2(C)C(=O)/C(=N/O)C[C@@H]12 ... inactive
COc1ccc(-c2nn(C(=O)c3cc(OC)c(OC)c(OC)c3)c3cc(N)ccc23)cc1 ... active
Nc1ncnc2c1c(-c1ccc(Oc3ccccc3)cc1)nn2C[C@H]1SSC[C@H]1O ... active

How did this test come out for CCCCCCCCCCCC(=O)[O][Sn]([CH2]CCC)([CH2]CCC)[CH2]CCC ?
active

Status in this test for O=C1COCCN1c1ccc(NCc2cn(Cc3ccc(F)cc3)c3ccccc23)cc1 ?
active

Just curious, what result did CCOc1ccc(-n2cc(-c3ccc(N(C)C)cc3)[n+]3c2CCCCC3)cc1 get here?
active

Returns: the outcome recorded for COc1cccc(-c2nn(C)c3sc(C(=O)NCCN4CCN(c5ccccc5F)CC4)cc23)c1 in this assay.
inactive

Write down the call the test reported for this compound. Item: O=c1c(-c2nc3ccccc3[nH]2)cc2ccccc2n1Cc1cn(Cc2ccc(F)cc2)nn1
inactive

Test call for this compound, please: COc1cc(Cl)c(C)cc1NC(=O)c1cc2ccccc2cc1O
inactive

Record lookup: outcome of this test for CN(Cc1cccc(Cl)c1)c1ccc(CO)c(Cl)c1 ?
active

// outcome(item) with item = Cc1nc(N(C)C)nc(-c2cccc(-c3ccn(CCN(C)C)n3)c2)c1C
inactive

// data source = PubChem BioAssay (NCI)
